Molecular target: EGFR (Homo sapiens, UniProt P00533)
Sequence (P00533 25-1210): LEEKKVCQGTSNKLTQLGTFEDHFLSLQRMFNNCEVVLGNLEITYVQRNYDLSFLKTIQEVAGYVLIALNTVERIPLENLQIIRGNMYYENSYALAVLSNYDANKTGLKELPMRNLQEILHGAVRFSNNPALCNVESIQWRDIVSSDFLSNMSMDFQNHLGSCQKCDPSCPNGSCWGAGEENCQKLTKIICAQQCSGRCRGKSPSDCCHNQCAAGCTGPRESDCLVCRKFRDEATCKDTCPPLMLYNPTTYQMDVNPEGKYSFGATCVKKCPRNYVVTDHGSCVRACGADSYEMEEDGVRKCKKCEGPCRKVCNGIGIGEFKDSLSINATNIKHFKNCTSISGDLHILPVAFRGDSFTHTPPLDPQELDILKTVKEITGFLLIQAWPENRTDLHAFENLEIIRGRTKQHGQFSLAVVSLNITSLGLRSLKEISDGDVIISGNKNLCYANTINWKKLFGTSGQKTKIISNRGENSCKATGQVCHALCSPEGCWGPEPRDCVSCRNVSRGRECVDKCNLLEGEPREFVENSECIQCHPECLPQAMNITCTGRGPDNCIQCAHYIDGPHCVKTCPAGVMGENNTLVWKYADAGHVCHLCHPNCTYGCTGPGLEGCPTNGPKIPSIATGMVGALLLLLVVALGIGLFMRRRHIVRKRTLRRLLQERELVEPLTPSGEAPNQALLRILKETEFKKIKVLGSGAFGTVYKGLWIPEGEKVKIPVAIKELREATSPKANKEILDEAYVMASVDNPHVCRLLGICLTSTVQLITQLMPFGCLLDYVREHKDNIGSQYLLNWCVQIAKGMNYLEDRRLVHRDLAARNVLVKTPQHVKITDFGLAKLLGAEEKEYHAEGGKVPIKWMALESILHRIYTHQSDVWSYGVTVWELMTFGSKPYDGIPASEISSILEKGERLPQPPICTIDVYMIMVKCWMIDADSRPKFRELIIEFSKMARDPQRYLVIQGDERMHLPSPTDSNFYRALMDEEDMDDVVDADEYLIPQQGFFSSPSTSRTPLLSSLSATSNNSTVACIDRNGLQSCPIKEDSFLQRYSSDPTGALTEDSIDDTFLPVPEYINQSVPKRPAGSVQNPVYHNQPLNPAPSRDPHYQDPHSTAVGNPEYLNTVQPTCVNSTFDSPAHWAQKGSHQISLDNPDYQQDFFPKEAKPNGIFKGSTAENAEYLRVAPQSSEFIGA
Assay: EGFR kinase assay (33P-ATP filter plate)
Assay type: biochemical
Conditions: 10 μM compound; read-out: EGFR percent of inhibition
Method: General description of the kinase assays: the kinase activity was assayed in 96-well microtiter plates at a final compound concentration of 10 μM in a total volume of 50 μl. Compounds were dissolved in 100% DMSO to prepare a 10 mM stock solution and than diluted with buffer to reach a 10 μM (or the required) final concentration. The kinase concentration was used to yield 10% ATP turn over. […] The radioactivity was counted on a Microbeta microplate counter.
measuredEndpoint: inhibition at 10 µM (%)

Some entries whose results are on file:
{"smilesInput": "Fc1cccc(Nc2nc(C3CC3)nc3sc4ccccc4c23)c1", "unitDescriptor": "%", "inhibition at 10 µM": 60}
{"smilesInput": "Fc1ccccc1Nc1ncnc2sc3c(c12)CCCC3", "unitDescriptor": "%", "inhibition at 10 µM": 97}
{"smilesInput": "COc1cccc(Nc2nc(C3CC3)nc3sc4ccccc4c23)c1", "unitDescriptor": "%", "inhibition at 10 µM": 46}

1: Clc1cccc(Nc2ncnc3sc4ccccc4c23)c1
2: O=[N+]([O-])c1cccc(Nc2nc(C3CC3)nc3sc4c(c23)CCCC4)c1
*Q* For the two items 1 and 2 , which reports the higher inhibition at 10 µM value? Field: selected label. Fill in the label of the entry you choose.
*A* 1
(1: 98%, 2: 26%)

P: Fc1ccc(Nc2ncnc3sc4c(c23)CCCC4)cc1
Q: Clc1cccc(Nc2nc(C3CC3)nc3sc4c(c23)CCCC4)c1
*Q* For the two items P and Q , which reports the higher inhibition at 10 µM value? Field: selected label. Fill in the label of the entry you choose.
*A* P

1: Brc1cccc(Nc2ncnc3sc4ccccc4c23)c1
2: Oc1cccc(Nc2nc(C3CC3)nc3sc4c(c23)CCCC4)c1
3: Oc1cccc(Nc2nc(C3CC3)nc3sc4ccccc4c23)c1
*Q* Order the entries by their reported inhibition at 10 µM, beginning at the minimum. Dear reader, please state the labels in the requested order.
*A* 2, 3, 1
(2: 23%, 3: 54%, 1: 99%)

----------
target: c-Raf (Homo sapiens); assay: c-Raf kinase assay; type: biochemical; conditions: 10 μM compound; read-out: c-Raf percent of inhibition
Sequence (P04049 whole entry, species assumed): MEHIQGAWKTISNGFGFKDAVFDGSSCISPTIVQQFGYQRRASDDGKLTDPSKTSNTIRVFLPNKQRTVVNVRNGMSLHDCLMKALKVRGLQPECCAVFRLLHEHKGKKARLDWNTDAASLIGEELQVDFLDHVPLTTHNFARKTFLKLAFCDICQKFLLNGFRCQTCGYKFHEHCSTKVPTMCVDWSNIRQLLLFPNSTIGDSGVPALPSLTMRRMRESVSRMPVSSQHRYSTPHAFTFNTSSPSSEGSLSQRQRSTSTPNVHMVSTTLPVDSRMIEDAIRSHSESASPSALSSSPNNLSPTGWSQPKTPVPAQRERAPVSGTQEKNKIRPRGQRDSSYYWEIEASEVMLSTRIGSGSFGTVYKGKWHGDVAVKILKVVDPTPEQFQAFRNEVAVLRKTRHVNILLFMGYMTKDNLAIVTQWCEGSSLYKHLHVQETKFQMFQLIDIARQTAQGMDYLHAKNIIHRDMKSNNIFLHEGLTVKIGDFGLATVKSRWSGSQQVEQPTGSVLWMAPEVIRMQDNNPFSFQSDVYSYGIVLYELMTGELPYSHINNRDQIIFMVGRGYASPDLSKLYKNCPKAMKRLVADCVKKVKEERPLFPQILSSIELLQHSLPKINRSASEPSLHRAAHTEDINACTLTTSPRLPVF
measuredEndpoint: inhibition at 10 µM (%)

Some entries whose results are on file:
{"smilesInput": "Nc1cccc(Nc2nc(C3CC3)nc3sc4c(c23)CCCC4)c1", "inhibition at 10 µM / %": -3}
{"smilesInput": "Oc1cccc(Nc2nc(C3CC3)nc3sc4ccccc4c23)c1", "inhibition at 10 µM / %": -4}

A: COc1cccc(Nc2nc(C3CC3)nc3sc4c(c23)CCCC4)c1
B: Oc1cccc(Nc2nc(C3CC3)nc3sc4c(c23)CCCC4)c1
*Q* Identify the item whose inhibition at 10 µM is the smaller number: A or B Field: selected label. Fill in the label of the entry you choose.
*A* A
(A: -13%, B: -3%)

----------
molecular target: SRPK1 (Homo sapiens); assay: SRPK1 kinase assay; type: biochemical; settings: 10 μM compound; read-out: SRPK1 percent of inhibition
Sequence (Q96SB4 whole entry, species assumed): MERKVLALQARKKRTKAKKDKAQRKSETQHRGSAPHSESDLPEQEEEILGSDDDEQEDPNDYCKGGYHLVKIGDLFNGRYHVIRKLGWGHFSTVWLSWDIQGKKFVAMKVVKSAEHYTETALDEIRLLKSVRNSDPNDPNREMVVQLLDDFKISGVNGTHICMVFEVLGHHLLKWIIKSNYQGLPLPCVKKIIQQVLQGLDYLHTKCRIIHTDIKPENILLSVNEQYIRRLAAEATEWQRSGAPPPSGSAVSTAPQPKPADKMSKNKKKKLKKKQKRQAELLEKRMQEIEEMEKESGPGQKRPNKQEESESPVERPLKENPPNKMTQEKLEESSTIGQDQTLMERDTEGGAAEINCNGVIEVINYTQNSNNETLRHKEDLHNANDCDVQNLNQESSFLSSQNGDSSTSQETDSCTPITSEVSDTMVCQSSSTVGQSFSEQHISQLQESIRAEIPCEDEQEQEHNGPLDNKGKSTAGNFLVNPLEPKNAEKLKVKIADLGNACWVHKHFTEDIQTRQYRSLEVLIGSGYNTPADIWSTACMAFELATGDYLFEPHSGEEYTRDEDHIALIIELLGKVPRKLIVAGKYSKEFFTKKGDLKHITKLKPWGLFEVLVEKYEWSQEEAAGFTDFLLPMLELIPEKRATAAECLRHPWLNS
measuredEndpoint: inhibition at 10 µM (%)

Some entries whose results are on file:
{"smilesInput": "Nc1ccc(Nc2ncnc3sc4c(c23)CCCC4)cc1", "experimentalSystem": "SRPK1 (Homo sapiens)", "measuredEndpoint": "inhibition at 10 µM", "quantitativeResult": -4}
{"smilesInput": "Brc1cccc(Nc2ncnc3sc4c(c23)CCCC4)c1", "experimentalSystem": "SRPK1 (Homo sapiens)", "measuredEndpoint": "inhibition at 10 µM", "quantitativeResult": 8}
{"smilesInput": "Nc1cccc(Nc2ncnc3sc4c(c23)CCCC4)c1", "experimentalSystem": "SRPK1 (Homo sapiens)", "measuredEndpoint": "inhibition at 10 µM", "quantitativeResult": 6}

A: FC(F)(F)c1cccc(Nc2nc(C3CC3)nc3sc4c(c23)CCCC4)c1
B: Brc1cccc(Nc2nc(C3CC3)nc3sc4ccccc4c23)c1
*Q* For the two items A and B , which reports the higher inhibition at 10 µM value? Field: selected label. Fill in the label of the entry you choose.
*A* B
(B: 12%, A: -5%)

----------
target: EGFR (Homo sapiens, UniProt P00533); assay: EGFR kinase assay (33P-ATP filter plate); assay type: biochemical; conditions: 10 μM compound; read-out: EGFR percent of inhibition
measuredEndpoint: inhibition at 10 µM (%)

{"smilesInput": "Brc1cccc(Nc2ncnc3sc4c(c23)CCCC4)c1", "measuredEndpoint": "inhibition at 10 µM", "quantitativeResult": 100}
{"smilesInput": "Nc1ccc(Nc2ncnc3sc4c(c23)CCCC4)cc1", "measuredEndpoint": "inhibition at 10 µM", "quantitativeResult": 96}
{"smilesInput": "N#Cc1cccc(Nc2ncnc3sc4c(c23)CCCC4)c1", "measuredEndpoint": "inhibition at 10 µM", "quantitativeResult": 99}
{"smilesInput": "Fc1cccc(Nc2ncnc3sc4ccccc4c23)c1", "measuredEndpoint": "inhibition at 10 µM", "quantitativeResult": 98}
{"smilesInput": "Fc1cccc(Nc2ncnc3sc4c(c23)CCCC4)c1", "measuredEndpoint": "inhibition at 10 µM", "quantitativeResult": 98}
{"smilesInput": "Brc1cccc(Nc2nc(C3CC3)nc3sc4ccccc4c23)c1", "measuredEndpoint": "inhibition at 10 µM", "quantitativeResult": 87}
